# EXPERIMENT: AUC100 in po dosed mouse
# Format: ADME, organism-based
# TEST_PARAMETERS: in vivo

# LINE_NOTATION, AUC [ng·h/mL]
data = [
    ("Cc1c(C(F)(F)F)cc2nc(C3=N[C@H](C(=O)N4CCCC4)CO3)sc2c1[N+](=O)[O-]", 10200),
    ("COCCN1CCN(C(=O)c2nc3cc(C(F)(F)F)c(C)c([N+](=O)[O-])c3s2)CC1", 570),
    ("O=C([C@@H]1COC(c2nc3cc(C(F)(F)F)cc([N+](=O)[O-])c3s2)=N1)N1CCCC1", 9180),
]

meta.source: ChEMBL document CHEMBL3739380
